Test system: CUL5 (Homo sapiens, UniProt Q93034, L345D/V341R)
Construct: GST-TEV (N, cleaved yes); made in house; host or cells: E. coli BL21 CodonPlus
Sequence (Q93034 1-386 V341R/L345D): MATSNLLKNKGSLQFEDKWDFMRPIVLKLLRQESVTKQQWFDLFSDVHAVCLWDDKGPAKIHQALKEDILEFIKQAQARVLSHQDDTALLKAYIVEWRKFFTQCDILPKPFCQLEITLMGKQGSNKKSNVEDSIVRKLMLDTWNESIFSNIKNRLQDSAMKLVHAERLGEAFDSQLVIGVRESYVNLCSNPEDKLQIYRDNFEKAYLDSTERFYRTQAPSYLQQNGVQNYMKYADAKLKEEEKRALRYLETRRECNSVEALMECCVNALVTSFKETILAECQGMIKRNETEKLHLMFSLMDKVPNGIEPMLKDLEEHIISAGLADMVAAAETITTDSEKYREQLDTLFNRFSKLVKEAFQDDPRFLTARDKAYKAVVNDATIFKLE
Method notes: Naive Library Presenter Screening (phage, NGS), CUL5
Format: binding
Particulars: CUL5 target concentration 1000 nM, first column
Ends that are not written are not given here.
Parameter: interaction data at Target Concentration 1000
Would you mind answering with just the numeric figure?

> print(dat)
    polymer.sequence  measurement
1  DPATFACANAAWECYAR           35

Looking for the measured interaction data at Target Concentration 1000 of DPAWFTCAQAAWDCVFH , can you help?
224

Looking for the measured interaction data at Target Concentration 1000 of DPAYYVCAEAAWNCLFE , can you help?
76

Looking for the measured interaction data at Target Concentration 1000 of DPAWFDCAEAAWQCVFI , can you help?
31

Looking for the measured interaction data at Target Concentration 1000 of DPAWHMCAEAAWQCAFW (not fully specified (C-terminus, bridges); cysteine pairing not given here) , can you help?
152

Looking for the measured interaction data at Target Concentration 1000 of DPAWAICAEAAWDCFMI , can you help?
11

* * *

Tested on: Expi293 cells
Method notes: CellTiter-Glo cell health (ATP levels) during cell association assay
Assay type: cell-based
Particulars: reflective of cell health, luminescence Tfinal (22 hours) / Tinitial
Parameter: CellTiter-Glo fold change ± SD
Would you mind answering with just the numeric figure?

Compound	CellTiter-Glo fold change ± SD
CC[C@H](C)[C@H](NC(=O)[C@H](Cc1ccc(O)cc1)NC(=O)[C@H](CCC(N)=O)NC(=O)[C@]1(C)CCCC=CCCCCCC[C@@](C)(NC(=O)[C@H](Cc2c[nH]cn2)NC(=O)[C@@H](NC(=O)[C@@H](NC(C)=O)[C@@H](C)CC)[C@@H](C)CC)C(=O)N[C@@H](Cc2ccc(O)cc2)C(=O)N[C@@H](CCC(=O)O)C(=O)N[C@@H](C)C(=O)N[C@@H](C)C(=O)N[C@@H](Cc2ccccc2)C(=O)N[C@@H](Cc2ccccc2)C(=O)N1)C(N)=O (single isomer, unassigned) [FP08011]	1.2

Next compound, CellTiter-Glo fold change ± SD to be filled in.
Looking for the measured CellTiter-Glo fold change ± SD of CCCC[C@H](NC(=O)[C@H](Cc1ccc(O)cc1)NC(=O)[C@H](CCC(N)=O)NC(=O)[C@]1(C)CCCC=CCCCCCC[C@@](C)(NC(=O)[C@H](CCC(=O)O)NC(=O)[C@H](CC(C)C)NC(=O)[C@@H](NC(C)=O)[C@@H](C)CC)C(=O)N[C@@H](Cc2ccc(O)cc2)C(=O)N[C@@H](CCC(=O)O)C(=O)N[C@@H](C)C(=O)N[C@@H](C)C(=O)N[C@@H](Cc2ccccc2)C(=O)N[C@@H](CCC(=O)O)C(=O)N1)C(N)=O (single isomer, unassigned) [FP08017] , can you help?
1.2
